Reported inhibition at 1 µM values for the following molecules.
target: protein farnesyltransferase (Rattus norvegicus, UniProt Q02293+Q04631); construct: Rat brain protein farnesyltransferase activity is measured; from tissue; host or cells: rat brain; purified according to Reiss et al., Cell 62:81-88 (1990), steps one through three; test: in vitro inhibition of protein farnesyltransferase (scintillation proximity assay, biotin-K Ras B fragment); format: biochemical; conditions: at 1 × 10^-6 M; read-out: % inhibition of farnesyltransferase
Numeric answer only, unit % assumed.

Worked examples follow.
• CSCC[C@H](NC(=O)c1ccc(CNc2ccc(C(O)(C(F)(F)F)C(F)(F)F)cc2)cc1-c1ccccc1)C(=O)O [Example 693] = 53
• CSCC[C@H](NC(=O)c1ccc(NCC(CO)CC2CCCCC2)cc1-c1ccccc1C)C(=O)O (stereo partly shown) [Example 479] = 95
• CSCC[C@H](NC(=O)c1ccc(CNc2ccccc2CCO)cc1-c1ccccc1)C(=O)O [Example 671] = 36

Dear colleague, I am looking for the recorded inhibition at 1 µM of the following molecule: CSCC[C@H](NC(=O)c1ccc(CN[C@H](CO)Cc2ccccc2)cc1-c1ccccc1C)C(=O)O [Example 727]
95

Record request: inhibition at 1 µM value, item CSCC[C@H](NC(=O)c1ccc(CN[C@H](C)CC2CCCCC2)cc1-c1ccccc1C)C(=O)O [Example 613]
97

What value of measured inhibition at 1 µM is listed for CSCC[C@H](NC(=O)c1ccc(CN(CC(c2ccccc2)c2ccccc2)c2ccccc2)cc1-c1ccccc1C)C(=O)O [Example 509] ?
77

Which inhibition at 1 µM is reported for this molecule? CSCC[C@H](NC(=O)c1ccc(CN(C(CC2CCCCC2)CC2CCCCC2)S(=O)(=O)c2ccccc2)cc1-c1ccccc1C)C(=O)O [Example 911]
65

###

biological target: protein farnesyltransferase (Rattus norvegicus, UniProt Q02293+Q04631); construct: Rat brain protein farnesyltransferase activity is measured; from tissue; host or cells: rat brain; purified according to Reiss et al., Cell 62:81-88 (1990), steps one through three; experiment: in vitro inhibition of protein farnesyltransferase (scintillation proximity assay, biotin-K Ras B fragment); format: biochemical; details: at 1 × 10^-6 M
Quantity Measured: % inhibition of farnesyltransferase (%)
Express your answer in %, writing the number without its unit.

For the record Cc1ccccc1-c1cc(CCc2ccc(Oc3ccccc3)cc2)ccc1C(=O)N[C@@H](CC[S+](C)[O-])C(=O)O (stereo partly shown) [Example 463] , what value of % inhibition of farnesyltransferase is listed for protein farnesyltransferase (Rattus norvegicus, UniProt Q02293+Q04631)?
91

// map CSCC[C@H](NC(=O)c1ccc(OCCCC2CCCCC2)cc1-c1ccccc1C)C(=O)O [Example 564] to recorded % inhibition of farnesyltransferase (system: protein farnesyltransferase (Rattus norvegicus, UniProt Q02293+Q04631))
98

Kindly state the measured % inhibition of farnesyltransferase obtained for CSCC[C@H](NC(=O)c1ccc(COCCCC2CCCCC2)cc1-c1ccccc1C)C(=O)O [Example 405] with protein farnesyltransferase (Rattus norvegicus, UniProt Q02293+Q04631).
98

State its % inhibition of farnesyltransferase on protein farnesyltransferase (Rattus norvegicus, UniProt Q02293+Q04631): Cc1ccccc1-c1cc(CN(C)C(C)(C)CC2CCCCC2)ccc1C(=O)N[C@@H](CCS(C)(=O)=O)C(=O)O [Example 314]
97

###

biological target: protein farnesyltransferase (Rattus norvegicus, UniProt Q02293+Q04631); construct: Rat brain protein farnesyltransferase activity is measured; from tissue; host or cells: rat brain; purified according to Reiss et al., Cell 62:81-88 (1990), steps one through three; assay: in vitro inhibition of protein farnesyltransferase (scintillation proximity assay, biotin-K Ras B fragment); format: biochemical; settings: at 1 × 10^-8 M
Attribute: % inhibition of farnesyltransferase
The figure you give is taken to be in %; do not add the unit.

- CSCC[C@H](NC(=O)c1ccc(CCc2ccc(Oc3ccc(Cl)cc3)cc2)cc1-c1ccccc1C)C(=O)O [Example 860]: 85

Please report the recorded % inhibition of farnesyltransferase for CSCC[C@H](NC(=O)c1ccc(COCc2cnc(-c3cccc(Cl)c3)s2)cc1-c1ccccc1C)C(=O)[O-].[Li+] [Example 899] .
88

Please report the recorded % inhibition of farnesyltransferase for CSCC[C@H](NC(=O)c1ccc(CO[C@H](CSC(C)(C)C)CC2CCCCC2)cc1-c1ccccc1C)C(=O)O [Example 883] .
91

Give its % inhibition of farnesyltransferase value. Item: COc1cccc(COCc2ccc(C(=O)N[C@@H](CCSC)C(=O)[O-])c(-c3ccccc3C)c2)c1.[Li+] [Example 932]
60

% inhibition of farnesyltransferase for CSCC[C@H](NC(=O)c1ccc(COCc2ccc(-c3ccc(N(C)C)cc3)o2)cc1-c1ccccc1C)C(=O)O [Example 821] ?
75

Quick one: % inhibition of farnesyltransferase for CSCC[C@H](NC(=O)c1ccc(COC(Cc2ccccc2)c2cncs2)cc1-c1ccccc1C)C(=O)[O-].[Li+] (some centres unmarked) [Example 828] ?
87

So what does the record say about % inhibition of farnesyltransferase for CSCC[C@H](NC(=O)c1ccc(CSCc2ccccc2)cc1-c1ccccc1C)C(=O)NS(=O)(=O)c1ccc(C)cc1 [Example 586] ?
90

Requested read-out: % inhibition of farnesyltransferase. Entry: CSCC[C@H](NC(=O)c1ccc(COCCc2ccc(Cl)cc2Cl)cc1-c1ccccc1C)C(=O)[O-].[Li+] [Example 591]
82

Returns the measured % inhibition of farnesyltransferase for the input compound. Input: CSCC[C@H](NC(=O)c1ccc(COCc2oc(-c3ccc(Cl)cc3)c(Cl)c2Cl)cc1-c1ccccc1C)C(=O)[O-].[Li+] [Example 829]
92

Name the recorded % inhibition of farnesyltransferase for CSCC[C@H](NC(=O)c1ccc(COCc2cnc(-c3cccc(F)c3)s2)cc1-c1ccccc1C)C(=O)[O-].[Li+] [Example 898] .
82

Could you share which % inhibition of farnesyltransferase value was measured for CSCC[C@H](NC(=O)c1ccc(COCCCC23CC4CC(CC(C4)C2)C3)cc1-c1ccccc1C)C(=O)[O-].[Li+] [Example 599] ?
86

I have this compound here, CSCC[C@H](NC(=O)c1ccc(CO[C@@H](CC2CCCCC2)CN2CCOCC2)cc1-c1ccccc1C)C(=O)O [Example 885] , and I need its recorded % inhibition of farnesyltransferase.
95

What measured % inhibition of farnesyltransferase goes with CSCC[C@H](NC(=O)c1ccc(COCc2ccc(-c3ccc(Cl)cc3)o2)cc1-c1ccccc1C)C(=O)NS(=O)(=O)c1ccccc1 [Example 819] ?
76

What value of measured % inhibition of farnesyltransferase is listed for CCCCC(OCc1ccc(C(=O)N[C@@H](CCSC)C(=O)[O-])c(-c2ccccc2C)c1)c1ccc(-c2ccc(Cl)cc2)o1.[Li+] (some centres unmarked) [Example 826] ?
92

###

target: protein farnesyltransferase (Rattus norvegicus, UniProt Q02293+Q04631); construct: Rat brain protein farnesyltransferase activity is measured; from tissue; host or cells: rat brain; purified according to Reiss et al., Cell 62:81-88 (1990), steps one through three; assay: in vitro inhibition of protein farnesyltransferase (scintillation proximity assay, biotin-K Ras B fragment); assay type: biochemical; conditions: read-out: % inhibition of farnesyltransferase
Counter-ions that a name gives are not always drawn.
Use 80% as the dividing line for inhibition at 0.01 µM, with the line itself on the condition met side and lower values as condition not met.

• CSCC[C@H](NC(=O)c1ccc(CN(C)CCC2CCCCC2)cc1-c1ccccc1C)C(=O)O [Example 608, Lithium Salt] = condition met

Given the entry CSCC[C@H](NC(=O)c1ccc(CN(CCC2CCCCC2)Cc2ccccc2)cc1-c1ccccc1C)C(=O)O [Example 605, Lithium Salt] , answer whether its inhibition at 0.01 µM meets or surpasses 80%.
condition not met

Does the reported inhibition at 0.01 µM for CSCC[C@H](NC(=O)c1ccc(CN(Cc2ccccc2)c2cccc([N+](=O)[O-])c2)cc1-c1ccccc1C)C(=O)O [Example 842, lithium salt] fall at or above the 80% mark?
condition met

###

biological target: protein farnesyltransferase (Rattus norvegicus, UniProt Q02293+Q04631); construct: Rat brain protein farnesyltransferase activity is measured; from tissue; host or cells: rat brain; purified according to Reiss et al., Cell 62:81-88 (1990), steps one through three; assay: in vitro inhibition of protein farnesyltransferase (scintillation proximity assay, biotin-K Ras B fragment); format: biochemical; conditions: at 1 × 10^-7 M
# label = t if % inhibition of farnesyltransferase >= 90% else f

// below: answered molecules
- CSCC[C@H](NC(=O)c1ccc(CSc2ccccc2C(C)C)cc1-c1ccccc1C)C(=O)O: f
- CSCC[C@H](NC(=O)c1ccc(COCc2cnc(-c3ccc(F)cc3)s2)cc1-c1ccccc1C)C(=O)O: t
- CSCC[C@H](NC(=O)c1ccc(CCc2ccc(C3CCCCC3)cc2)cc1-c1ccccc1C)C(=O)[O-].[Li+]: t
- CSCC[C@H](NC(=O)c1ccc(CSc2ccc3ccccc3c2)cc1-c1ccccc1C)C(=O)O: t
- CSCC[C@H](NC(=O)c1ccc(CSc2ncnc3[nH]cnc23)cc1-c1ccccc1C)C(=O)O: f

% inhibition of farnesyltransferase >= 90% for C=C(C)C1CC=C(COCc2ccc(C(=O)N[C@@H](CCSC)C(=O)O)c(-c3ccccc3C)c2)CC1 (stereo partly drawn) ?
t

# bool: % inhibition of farnesyltransferase of `COc1ccccc1COCc1ccc(C(=O)N[C@@H](CCSC)C(=O)[O-])c(-c2ccccc2C)c1.[Li+]` >= 90%
t

Determine whether measured % inhibition of farnesyltransferase meets or exceeds 90% for `COc1ncc(COCc2ccc(C(=O)N[C@@H](CCSC)C(=O)O)c(-c3ccccc3C)c2)s1`
t

Answer whether % inhibition of farnesyltransferase of `CSCC[C@H](NC(=O)c1ccc(CSC2=NCCS2)cc1-c1ccccc1C)C(=O)O` is greater than or equal to 90%.
t

Quick check: does `CSCC[C@H](NC(=O)c1ccc(CSc2nnc[nH]2)cc1-c1ccccc1C)C(=O)O` have % inhibition of farnesyltransferase greater than or equal to 90%?
t

Is the recorded value of % inhibition of farnesyltransferase equal to or greater than 90% for this molecule? `CSCC[C@H](NC(=O)c1ccc(COCCc2cccc3ccccc23)cc1-c1ccccc1C)C(=O)[O-].[Li+]`
t

Test whether the molecule `CSCC[C@H](NC(=O)c1ccc(CSc2nc3cc(C)ccc3[nH]2)cc1-c1ccccc1C)C(=O)O` records % inhibition of farnesyltransferase of 90% or higher.
f
